System: CD2F1 mice, L1210 leukemia ip, survival T/C
ASSAY_PROCEDURE: NCI In Vivo Anticancer Drug Screen. Data for tumor model L1210 Leukemia (intraperitoneal) in CD2F1 (CDF1) mice
SETUP_CONDITIONS: endpoint: mean survival time; dose: 100.0 mg/kg/injection; schedule: Q01DX009 (ip); vehicle: Klucel (hydroxypropylcellulose) (HPC); higher = longer survival
Inconclusive results and toxic doses are left out.
Assignment: determine reported T/C for the given molecules.

In plain terms, COc1cc(C(=O)C(=O)c2cc(OC)c(OC)c(OC)c2)cc(OC)c1OC has a documented T/C of 101 % of control

In plain terms, COC(=O)c1cc(Cl)c(C(=O)OC)cc1Cl has a documented T/C of 92 % of control

In plain terms, C/C(=N/NC(=O)c1ccccc1)c1ccccc1O has a documented T/C of 92 % of control

In plain terms, CS(=O)(=O)OCCN(CCOS(C)(=O)=O)c1ccc(C=Nc2ccc(-c3csc(COc4ccccc4)n3)cc2)cc1 has a documented T/C of 115 % of control

In plain terms, CCOC(=O)C1=C(C)NC(C)=C(C(=O)OCC)C1c1ccccn1 has a documented T/C of 91 % of control

In plain terms, CCCCC(CC)COCC1CO1 (configuration not stated) has a documented T/C of 96 % of control

In plain terms, O=C1C(c2ccccc2)=[N+]([O-])[N+]([O-])=C1c1ccccc1 has a documented T/C of 97 % of control

In plain terms, Cc1ccc(S(=O)(=O)N(Cc2ccc(Cl)cc2)N2CCOC2=O)cc1 has a documented T/C of 93 % of control

In plain terms, O=C1OC(=O)c2ccccc21 has a documented T/C of 95 % of control

In plain terms, c1ccc(N/N=C2/CSCc3ccccc32)cc1 has a documented T/C of 98 % of control

In plain terms, O=C(O)CNCc1ccc2c(c1)OCCO2 has a documented T/C of 103 % of control

In plain terms, O=C1c2ccccc2CC12OC2c1ccccc1 (configuration not stated) has a documented T/C of 89 % of control

###

Test system: CD2F1 mice, L1210 leukemia ip, survival T/C
ASSAY_PROCEDURE: NCI In Vivo Anticancer Drug Screen. Data for tumor model L1210 Leukemia (intraperitoneal) in CD2F1 (CDF1) mice
SETUP_CONDITIONS: endpoint: mean survival time; dose: 75.0 mg/kg/injection; schedule: Q04DX003 (ip); vehicle: saline; higher = longer survival
Inconclusive results and toxic doses are left out.
MEASURED_METRIC: T/C

In plain terms, O=C1C(=O)c2cccnc2C(NC2CC3CCC2C3)=C1Cl (centres undefined) has a documented T/C of 95 % of control

In plain terms, C/C(=N\O)c1ccc2[nH]c(C)cc(=O)c2c1 has a documented T/C of 95 % of control

In plain terms, CCOC(=O)c1cccc2ncccc12 has a documented T/C of 101 % of control

In plain terms, O=C1C=CC(=O)C(Br)C1Br (centres undefined) has a documented T/C of 103 % of control

###

System: CD2F1 mice, L1210 leukemia ip, survival T/C
ASSAY_PROCEDURE: NCI In Vivo Anticancer Drug Screen. Data for tumor model L1210 Leukemia (intraperitoneal) in CD2F1 (CDF1) mice
SETUP_CONDITIONS: endpoint: mean survival time; dose: 200.0 mg/kg/injection; schedule: Q01DX009 (ip); vehicle: saline
Toxic doses and inconclusive results are not listed. How the source made its calls: active means survival T/C of 150% or more; inactive means T/C below 125% in these data.
Give one outcome, nothing more. List: active, inactive

Each compound tested received a call. Report the one for O=[N+]([O-])c1ccc2c(N=Nc3c(O)ccc4ccccc34)c(O)cc(S(=O)(=O)O)c2c1 .
inactive

Each compound tested received a call. Report the one for CCN(CC)CCNc1nc(-c2cc(C(F)(F)F)cc(C(F)(F)F)c2)nc(C(Cl)(Cl)Cl)n1 .
inactive

Each compound tested received a call. Report the one for Nc1ccn([C@H]2C[C@@H](CO)[C@H](O)[C@@H]2O)c(=O)n1 .
active

Each compound tested received a call. Report the one for CC1C2CCC(C2)C1CO (stereo unspecified) .
inactive

Each compound tested received a call. Report the one for c1ccc2nc(CCc3ccc4ccccc4n3)ccc2c1 .
inactive

Each compound tested received a call. Report the one for O=P(CCCCl)(OCCCCl)OCCCCl .
inactive

Each compound tested received a call. Report the one for FC(F)(F)COP1(OCC(F)(F)F)=NP(OCC(F)(F)F)(OCC(F)(F)F)=NP(OCC(F)(F)F)(OCC(F)(F)F)=NP(OCC(F)(F)F)(OCC(F)(F)F)=N1 .
inactive

Each compound tested received a call. Report the one for C1CN(CC2COC(CN3CCOCC3)CO2)CCO1 (stereo unspecified) .
inactive

Each compound tested received a call. Report the one for CC1CC(=O)OC2CC(C)(C)CC(=O)C12 (stereo unspecified) .
inactive

Each compound tested received a call. Report the one for Nc1ccc(S(=O)(=O)O)cc1[N+](=O)[O-] .
inactive

Each compound tested received a call. Report the one for CC(=O)NCC(O)C(O)C(O)C(O)CO (stereo unspecified) .
inactive

Each compound tested received a call. Report the one for CC(S)CN (stereo unspecified) .
inactive

Each compound tested received a call. Report the one for O=c1[nH]c2ccc(Br)cc2c(=O)o1 .
inactive

Each compound tested received a call. Report the one for CCOC(=O)C(=O)O .
inactive

Each compound tested received a call. Report the one for [O-][n+]1cccc(CCc2ccc[n+]([O-])c2)c1 .
inactive

Each compound tested received a call. Report the one for CCOC(=O)C(Br)C(Br)c1ccccc1 (stereo unspecified) .
inactive

Each compound tested received a call. Report the one for CC(=O)NCCCCCCNC(C)=O .
inactive

Each compound tested received a call. Report the one for CC1=CC(=O)OC(C)(C)C1 .
inactive

Each compound tested received a call. Report the one for NC(=O)N(CCO)CCO .
inactive

Each compound tested received a call. Report the one for Cc1ccc(C(=O)c2ccc(C)cc2)cc1 .
inactive

Each compound tested received a call. Report the one for COC(=O)C/C(=C/C=C1/C(=O)ON=C1C)c1c(C)[nH]oc1=O .
inactive

###

Tested on: CD2F1 mice, L1210 leukemia ip, survival T/C
ASSAY_PROCEDURE: NCI In Vivo Anticancer Drug Screen. Data for tumor model L1210 Leukemia (intraperitoneal) in CD2F1 (CDF1) mice
SETUP_CONDITIONS: endpoint: mean survival time; dose: 400.0 mg/kg/injection; schedule: Q01DX001 (ip); vehicle: saline
Inconclusive results and toxic doses are left out. How the source made its calls: active means survival T/C of 150% or more; inactive means T/C below 125% in these data.
Give one outcome, nothing more. List: active, inactive

Each compound tested received a call. Report the one for CCN(CC)C1=C(C)S(=O)(=O)C1c1ccc(C)cc1 (stereo not drawn) .
inactive

Each compound tested received a call. Report the one for C=COCCSCC .
inactive

Each compound tested received a call. Report the one for O=C(CCc1ccc(O)cc1)c1c(O)cc(O)cc1OC1OC(CO)C(O)C(O)C1O (stereo not drawn) .
inactive

Each compound tested received a call. Report the one for O=C1CSC(=O)N1 (tested in a mixture with another compound) .
inactive

Each compound tested received a call. Report the one for COC(=O)NCCNC(=O)OC .
inactive

Each compound tested received a call. Report the one for O=P(OCCCCCl)(OCCCCCl)C(Cl)Cl .
inactive

Each compound tested received a call. Report the one for C/C(=N/O)c1ccc2c(c1)C(C)c1ccccc1-2 (stereo not drawn) .
inactive

Each compound tested received a call. Report the one for COC1OC(C(O)CO)C(O)C(O)C1O (stereo not drawn) .
inactive

Each compound tested received a call. Report the one for S=c1[nH]c2cc(Cl)c(Cl)cc2[nH]1 .
inactive

Each compound tested received a call. Report the one for CC(=O)O.[Th] .
inactive

Each compound tested received a call. Report the one for CC12OC3(C)C4C(=O)OC1C1(C)OC4(C)C3C(=O)OC21 .
inactive

Each compound tested received a call. Report the one for Nc1nc(=S)c2ncn(C3OC(CO)C(O)C3O)c2[nH]1 (stereo not drawn) .
active

Each compound tested received a call. Report the one for O=CNc1ccccc1OCc1ccccc1 .
inactive

###

Tested on: CD2F1 mice, L1210 leukemia ip, survival T/C
ASSAY_PROCEDURE: NCI In Vivo Anticancer Drug Screen. Data for tumor model L1210 Leukemia (intraperitoneal) in CD2F1 (CDF1) mice
SETUP_CONDITIONS: endpoint: mean survival time; dose: 3.13 mg/kg/injection; schedule: Q01DX009 (ip); vehicle: saline with Tween-80; higher = longer survival
Inconclusive results and toxic doses are left out.
Assignment: determine reported T/C for the given molecules.

In plain terms, CC/C(C)=C1\OC(=O)C(C)C(O)C(Cc2cccnc2)NC(=O)C(NC(=O)c2ncccc2O)C(C)OC1=O (stereo unspecified) has a documented T/C of 96 % of control

In plain terms, CCOC(=O)/C=C1\NC(=O)N(CCCN2C(=O)N/C(=C\C(=O)OCC)C2=O)C1=O has a documented T/C of 95 % of control

In plain terms, ClC(c1ccccc1)C(Cl)c1ccccc1 (stereo unspecified) has a documented T/C of 102 % of control

In plain terms, COc1cc(OC)c(/C=C/c2cc3ccccc3c[n+]2C)c(OC)c1 has a documented T/C of 117 % of control

In plain terms, CCCCCCCCCCCC(=O)[O][Pb]([CH2]C)([CH2]C)[CH2]C has a documented T/C of 87 % of control

In plain terms, CCC[CH2][Sn]1([CH2]CCC)[O]OC(C)(CC)[O]1 (stereo unspecified) has a documented T/C of 112 % of control
